- Tgt: T1, mouse serum albumin (mouse, UniProt P07724 25-608)
- T1 construct: also called MSA
- Experimental Protocol: ratio of the Octet KD for mouse serum albumin to that for human serum albumin
Where Ratio of MSA-KD to HSA-KD equals or exceeds 6, the correct label is MET; where it does not, the label is NOT MET.

Observe how each entry below is paired with its result.
CNG-HSA-117 (VHH) VHH: KVQLVESGGGLVQPGNSLRLSCAASGFTFSSFGMSWVRQAPGKGLEWVSSISGSGSDTLYADSVKGRFTISRDNSKNTLYLQMNSLRAEDTAVYYCTIGGSLTRSSQGTLVTVSS	MET
CNG-HSA-112 (VHH) VHH: KVQLLESGGGLVQPGGSLRLSCAASGFTFPSFGMSWVRQAPGKGLEWVSSISGSGSDTLYADSVKGRFTISRDNAKTTLYLQMNSLRPEDTAVYYCTIGGSVSKSSRGTLVTVSS	MET
CNG-HSA-111 (VHH) VHH: KVQLVESGGGLVQPGGSLRLSCAASGFTFSSFGMSWVRQAPGKGLEWVSSISGSGSDTLYADSVEGRFTISRDNSKNTLYLQMNSLRAEDTAVYYCTIGGSLKQSSQGTLVTVSS	NOT MET
CNG-HSA-115 (VHH) VHH: KVQLVESGGGLVQPGNSLRLSCAASGFTFSSFGMGWVRQAPGKGLEWVSSISGSGSDTLYAPSVKGRFTISRDNSKNTLYLQMNSLRPEDTAVYYCTFAGSLSRSSQGTLVTVSS	NOT MET
CNG-HSA-102 (VHH) VHH: KVQLLESGGGLVQPGGSLRLSCAASGFTFSSFGMSWVRQAPGKGLEWVSSISGSGSDTLYADSVRGRFTISRDNSKNTLYLQMNSLRPEDTAVYYCTIGGSLSPSSQGTLVTVSS	MET

Kindly consider the entry below.
Has CNG-HSA-118 (VHH) VHH: KVQLVESGGGLVQPGNSLRLSCAASGFTFSSFGMSWVRQAPGKGLEWVSSISGGGSDTLYADSVRGRFTISRDNSKNTLYLQMNSLRAEDTAVYYCTIGGSLRASSQGTLVTVSS a recorded Ratio of MSA-KD to HSA-KD greater than or equal to 6?
NOT MET
